Literature pIC50 values, system: UniProt P16116.
pIC50: −log10 of the molar value.
reported.endpoint: pIC50

>>> print(df.to_string())
                              line_notation  observed_measurement
0  O=C1c2ccccc2C(=O)c2cc(S(=O)(=O)N3C(=O)NC4(C3=O)c3ccccc3-c3ccccc34)ccc21                  4.95
1  Cc1ccc(/C=C/c2ccc(/C=C3\SC(=O)N(CC(=O)O)C3=O)cc2)cc1                  6.46
2  NC(=O)COc1ccc(/C=C2\SC(=O)N(CC(=O)O)C2=O)cc1                  6.25

(1) CCCCCCOc1cc(O)c2c(=O)cc(-c3ccc4c(c3)OCCO4)oc2c1
(2) O=C(O)Cn1nc2c(cc1=O)CCCc1ccccc1-2
(3) CCCCOc1cc(O)c2c(=O)cc(-c3ccc(O)c(O)c3)oc2c1
(4) COc1cccc(/C=C2\SC(=S)N(CC(=O)O)C2=O)c1
Rank order required: pIC50, descending. Write out the labels following the order that was asked for.
4, 3, 1, 2
(4: 6.82, 3: 6.11, 1: 5.77, 2: 4.12)
